test system: HCV genotype 1b replicon NS5A L31F; experiment: Transient HCV 1b replicon, NS5A mutant L31F; format: cell-based; conditions: Hepatitis C virus, read-out: EC50 L31F
Entries and their EC50

- Compound: "CC[C@H](C)[C@H](NC(=O)OC)C(=O)N1CCC[C@H]1c1nc2cc(-c3ccc4cc(-c5cnc([C@@H]6CCCN6C(=O)[C@@H](NC(=O)OC)[C@@H](C)OC)[nH]5)ccc4c3)ccc2[nH]1 [Compound 18]"
  EC50: "5 pM"
- Compound: "COC(=O)N[C@H](C(=O)N1CCC[C@H]1c1ncc(-c2ccc3cc(-c4ccc5nc([C@@H]6CCCN6C(=O)[C@@H](NC(=O)OC)C(C)C)[nH]c5c4)ccc3c2)[nH]1)C(C)C [Compound 3]"
  EC50: "32 pM"
- Compound: "COC(=O)N[C@H](C(=O)N1CCC[C@H]1c1ncc(-c2ccc(-c3ccc4nc([C@@H]5CCCN5C(=O)[C@@H](NC(=O)OC)[C@@H](C)OC)[nH]c4c3)cc2)[nH]1)[C@@H](C)OC [Compound 2]"
  EC50: "1810 pM"
- Compound: "CC[C@H](C)[C@H](NC(=O)OC)C(=O)N1CCC[C@H]1c1ncc(-c2ccc3cc(-c4ccc5[nH]c([C@@H]6CCCN6C(=O)[C@@H](NC(=O)OC)C(C)C)nc5c4)ccc3c2)[nH]1 [Compound 16]"
  EC50: "17 pM"
- Compound: "COC(=O)N[C@H](C(=O)N1CCC[C@H]1c1nc2ccc(-c3ccc4cc(-c5cnc([C@@H]6CCCN6C(=O)[C@@H](NC(=O)OC)[C@@H](C)OC)[nH]5)ccc4c3)cc2[nH]1)C(C)C [Compound 11]"
  EC50: "21 pM"
- Compound: "COC(=O)N[C@H](C(=O)N1CCC[C@H]1c1ncc(-c2ccc3cc(-c4ccc5nc([C@@H]6CCCN6C(=O)[C@@H](NC(=O)OC)[C@@H](C)OC)[nH]c5c4)ccc3c2)[nH]1)[C@@H](C)OC [Compound 4]"
  EC50: "20 pM"

---

assay: Counterscreen Huh7-CMV-Luc; format: cell-based; conditions: human

- Compound: "CC[C@H](C)[C@H](NC(=O)OC)C(=O)N1CCC[C@H]1c1ncc(-c2ccc3cc(-c4ccc5nc([C@@H]6CCCN6C(=O)[C@@H](NC(=O)OC)[C@@H](C)CC)[nH]c5c4)ccc3c2)[nH]1 [Compound 8]"
  CC50: "> 0.984 µM"
- Compound: "COC(=O)N[C@H](C(=O)N1CCC[C@H]1c1ncc(-c2ccc3cc(-c4ccc5nc([C@@H]6CCCN6C(=O)[C@@H](NC(=O)OC)C(C)C)[nH]c5c4)ccc3c2)[nH]1)C(C)C [Compound 3]"
  CC50: "7.64 µM"
- Compound: "COC(=O)N[C@@H](CC(C)C)C(=O)N1CCC[C@H]1c1ncc(-c2ccc3cc(-c4ccc5nc([C@@H]6CCCN6C(=O)[C@H](CC(C)C)NC(=O)OC)[nH]c5c4)ccc3c2)[nH]1 [Compound 7]"
  CC50: "> 0.984 µM"
- Compound: "COCC[C@H](NC(=O)OC)C(=O)N1CCC[C@H]1c1ncc(-c2ccc3cc(-c4ccc5nc([C@@H]6CCCN6C(=O)[C@H](CCOC)NC(=O)OC)[nH]c5c4)ccc3c2)[nH]1 [Compound 10]"
  CC50: "> 0.984 µM"
- Compound: "CC[C@H](C)[C@H](NC(=O)OC)C(=O)N1CCC[C@H]1c1ncc(-c2ccc3cc(-c4ccc5[nH]c([C@@H]6CCCN6C(=O)[C@@H](NC(=O)OC)C(C)C)nc5c4)ccc3c2)[nH]1 [Compound 16]"
  CC50: "> 0.984 µM"
